Sourced from patent EP4796557A1

Target: MMP2 (Homo sapiens, UniProt P08253)
Sequence (P08253 110-660): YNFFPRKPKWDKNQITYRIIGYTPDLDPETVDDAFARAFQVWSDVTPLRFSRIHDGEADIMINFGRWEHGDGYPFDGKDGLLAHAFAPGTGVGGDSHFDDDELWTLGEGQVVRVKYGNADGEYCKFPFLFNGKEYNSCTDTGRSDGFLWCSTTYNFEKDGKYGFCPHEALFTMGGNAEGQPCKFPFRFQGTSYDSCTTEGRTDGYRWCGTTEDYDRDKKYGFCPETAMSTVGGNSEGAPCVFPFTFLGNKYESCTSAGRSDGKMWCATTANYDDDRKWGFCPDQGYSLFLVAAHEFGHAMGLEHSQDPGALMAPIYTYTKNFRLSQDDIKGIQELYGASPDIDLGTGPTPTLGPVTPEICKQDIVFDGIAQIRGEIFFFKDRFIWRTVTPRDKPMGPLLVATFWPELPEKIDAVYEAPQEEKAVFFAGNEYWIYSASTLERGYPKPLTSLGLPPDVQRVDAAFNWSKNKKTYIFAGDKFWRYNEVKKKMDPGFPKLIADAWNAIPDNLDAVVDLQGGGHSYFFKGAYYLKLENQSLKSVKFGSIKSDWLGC
Assay: Enzymolysis assay of polypeptides by MMP2 (RP-HPLC)
Format: biochemical
Settings: test polypeptide 100 µmol, activated MMP2, 37°C, 4 h
Square brackets hold non-standard residues; d marks the D form. Peptide text beside a SMILES is read from it. Cit = NC(=O)NCCC[C@H](N)C(=O)O
endpoint label: Enzymolysis efficiency (%)

compound | experimental result
CC(=O)N[C@@H](Cc1c[nH]cn1)C(=O)N1CCC[C@H]1C(=O)N[C@@H](CCCNC(N)=O)C(=O)NCC(=O)N[C@@H](CC(C)C)C(=O)N[C@H](C(=O)N[C@@H](CCCNC(N)=O)C(N)=O)C(C)C [Compound 2-P16] (Ac-HP[Cit]GLV[Cit]-NH2) | 53.54
CC(=O)N[C@@H](CO)C(=O)N1CCC[C@H]1C(=O)N[C@@H](CCCNC(N)=O)C(=O)NCC(=O)N[C@@H](CC(C)C)C(=O)N[C@H](C(=O)N[C@@H](CCCNC(N)=O)C(N)=O)C(C)C [Compound 2-P22] (Ac-SP[Cit]GLV[Cit]-NH2) | 55.25
CC(=O)N1CCC[C@H]1C(=O)N[C@@H](CCCNC(=N)N)C(=O)N1CCC[C@H]1C(=O)N[C@@H](CC(C)C)C(=O)N[C@H](C(=O)N[C@@H](CCCNC(N)=O)C(N)=O)C(C)C [Compound 2-P4] (Ac-PRPLV[Cit]-NH2) | 46.14

----------
Molecular target: MMP9 (Homo sapiens, UniProt P14780)
Sequence (P14780 107-707 limits assumed, species assumed): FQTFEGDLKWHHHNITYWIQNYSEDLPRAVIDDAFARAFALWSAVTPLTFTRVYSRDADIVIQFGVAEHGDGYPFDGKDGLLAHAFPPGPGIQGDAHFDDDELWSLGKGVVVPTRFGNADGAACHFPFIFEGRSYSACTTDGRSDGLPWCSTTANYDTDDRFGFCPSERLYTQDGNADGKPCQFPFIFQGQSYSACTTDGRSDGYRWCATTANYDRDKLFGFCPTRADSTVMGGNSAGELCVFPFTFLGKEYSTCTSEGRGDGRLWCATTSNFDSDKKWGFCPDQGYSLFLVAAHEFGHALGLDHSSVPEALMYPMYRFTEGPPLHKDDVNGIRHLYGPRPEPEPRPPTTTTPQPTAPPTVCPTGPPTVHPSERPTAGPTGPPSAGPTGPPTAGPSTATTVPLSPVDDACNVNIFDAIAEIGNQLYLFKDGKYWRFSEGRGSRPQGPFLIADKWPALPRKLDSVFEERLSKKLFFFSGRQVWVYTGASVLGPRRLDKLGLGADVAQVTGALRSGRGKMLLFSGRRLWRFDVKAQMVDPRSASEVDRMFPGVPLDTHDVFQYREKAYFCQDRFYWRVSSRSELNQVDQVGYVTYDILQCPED
Assay: Enzymolysis assay of polypeptides by MMP9 (RP-HPLC)
Assay type: biochemical
Details: polypeptide 100 µmol with activated MMP9, 37°C, 4 h, RP-HPLC peak areas
Square brackets hold non-standard residues; d marks the D form. Peptide text beside a SMILES is read from it. Cit = NC(=O)NCCC[C@H](N)C(=O)O
# strict inequality: Enzymolysis efficiency (%) < 80% yields true (1), everything else yields false (0)

compound | label class
CC(=O)N[C@@H](Cc1c[nH]cn1)C(=O)N1CCC[C@H]1C(=O)N[C@@H](CCCNC(N)=O)C(=O)NCC(=O)N[C@@H](CC(C)C)C(=O)N[C@H](C(=O)N[C@@H](CCCNC(N)=O)C(N)=O)C(C)C [Compound 2-P16] (Ac-HP[Cit]GLV[Cit]-NH2) | true (1)
CC(=O)N[C@@H](CO)C(=O)N1CCC[C@H]1C(=O)N[C@@H](CCCNC(=N)N)C(=O)N1CCC[C@H]1C(=O)N[C@@H](CC(C)C)C(=O)N[C@H](C(=O)N[C@@H](CCCNC(N)=O)C(N)=O)C(C)C [Compound 2-P20] (Ac-SPRPLV[Cit]-NH2) | true (1)
CC(=O)NCC(=O)N1CCC[C@H]1C(=O)N[C@@H](CCCNC(=N)N)C(=O)N1CCC[C@H]1C(=O)N[C@@H](CC(C)C)C(=O)N[C@H](C(=O)N[C@@H](CCCNC(N)=O)C(N)=O)C(C)C [Compound 2-P8] (Ac-GPRPLV[Cit]-NH2) | true (1)
CC(=O)N1CCC[C@H]1C(=O)N[C@@H](CCCNC(=N)N)C(=O)NCC(=O)N[C@@H](CC(C)C)C(=O)N[C@H](C(=O)N[C@@H](CCCNC(N)=O)C(N)=O)C(C)C [Compound 2-P1, PRGLVCit] (Ac-PRGLV[Cit]-NH2) | false (0)
CC(=O)N1CCC[C@H]1C(=O)N[C@@H](CCCNC(N)=O)C(=O)NCC(=O)N[C@@H](CC(C)C)C(=O)N[C@H](C(=O)N[C@@H](CCCNC(N)=O)C(N)=O)C(C)C [Compound 2-P5] (Ac-P[Cit]GLV[Cit]-NH2) | true (1)
